// data source = ChEMBL document CHEMBL1961873

inhibition values by entry
target: Serine/threonine-protein kinase TBK1 (Homo sapiens) (UniProt Q9UHD2); settings: at 1 µM;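 also: values are mean inhibition of TBK1, screened as part of the GSK published kinase inhibitor set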
Sequence (Q9UHD2 whole entry): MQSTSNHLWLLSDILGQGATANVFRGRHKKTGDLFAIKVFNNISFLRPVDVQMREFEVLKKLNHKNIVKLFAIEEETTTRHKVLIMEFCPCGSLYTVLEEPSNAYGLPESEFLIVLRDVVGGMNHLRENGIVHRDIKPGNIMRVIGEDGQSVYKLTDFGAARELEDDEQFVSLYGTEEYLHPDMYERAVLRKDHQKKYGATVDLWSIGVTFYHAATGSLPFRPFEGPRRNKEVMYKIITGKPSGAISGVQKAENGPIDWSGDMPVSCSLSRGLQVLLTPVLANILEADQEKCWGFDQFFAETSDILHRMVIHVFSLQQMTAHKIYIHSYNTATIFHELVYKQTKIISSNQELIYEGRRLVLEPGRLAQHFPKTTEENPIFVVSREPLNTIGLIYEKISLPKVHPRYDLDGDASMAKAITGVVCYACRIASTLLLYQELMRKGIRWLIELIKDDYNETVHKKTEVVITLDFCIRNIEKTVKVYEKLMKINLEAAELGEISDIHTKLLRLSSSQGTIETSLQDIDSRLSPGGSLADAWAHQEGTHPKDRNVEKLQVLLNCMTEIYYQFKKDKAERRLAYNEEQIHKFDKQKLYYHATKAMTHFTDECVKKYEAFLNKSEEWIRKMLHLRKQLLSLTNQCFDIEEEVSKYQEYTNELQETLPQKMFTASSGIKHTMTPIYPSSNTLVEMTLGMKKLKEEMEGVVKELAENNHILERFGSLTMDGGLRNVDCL

The following compounds have reported results that may help.
compound=CCS(=O)(=O)c1ccc(OC)c(Nc2ncc(-c3cccc(OC)c3)o2)c1 readout_value=9.22%
compound=N#Cc1cccc(Nc2nccc(-c3cnn4ncccc34)n2)c1 readout_value=22.1%
compound=ON=C1CCc2cc(-c3nc(C4CCNCC4)[nH]c3-c3ccncc3)ccc21 readout_value=1.68%

# lookup: Serine/threonine-protein kinase TBK1 (Homo sapiens) (UniProt Q9UHD2) inhibition, key = Nc1nccc(C#Cc2cncnc2Nc2ccc(OCc3cccc(F)c3)c(Cl)c2)n1
9.39%

Please look at C[C@@H](Oc1cc(-n2cnc3ccc(OCC4CCN(C)CC4)cc32)sc1C(N)=O)c1ccccc1C(F)(F)F and tell me its recorded inhibition on Serine/threonine-protein kinase TBK1 (Homo sapiens) (UniProt Q9UHD2).
-1.33%

Identify measured inhibition obtained with Serine/threonine-protein kinase TBK1 (Homo sapiens) (UniProt Q9UHD2) for CCCN1CCCC(c2ccc(Nc3nc(Nc4cc(F)ccc4C(N)=O)c4cc[nH]c4n3)c(OC)c2)C1 (stereo not given) .
11.5%

###

Catalogue of compounds with associated inhibition
target: Fibroblast growth factor receptor 4 (Homo sapiens); conditions: at 1 µM;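 also: reported figure is the averaged percent inhibition of FGFR4, from the GSK PKIS kinase screening panel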
# number only, unit % dropped from output

Example entries begin here.
mol_smiles=CN(C)C(=O)O[C@@H]1CN[C@@H](C#Cc2cc3ncnc(Nc4ccc(OCc5cccc(F)c5)c(Cl)c4)c3s2)C1 result_type=inhibition readout_value=0.26
mol_smiles=COc1cccc(-n2ncc3c(N/N=C/c4ccc(S(C)(=O)=O)cc4)ncnc32)c1 result_type=inhibition readout_value=-1.16
mol_smiles=c1ccc(Nc2ncc(-c3ccccc3)o2)cc1 result_type=inhibition readout_value=0.73
mol_smiles=COc1cc(Nc2nccc(-c3cnn4ncccc34)n2)cc(OC)c1 result_type=inhibition readout_value=0.03
mol_smiles=CCOc1nccc2c1nc(-c1nonc1N)n2CC result_type=inhibition readout_value=4.2

Please give the documented inhibition of Cc1ccc(Nc2ccnc(Nc3cccc(C(N)=O)c3)n2)cc1O
3.08

Answer with reported inhibition of CN(C)C(=O)O[C@H]1CN[C@H](C#Cc2cc3ncnc(Nc4ccc(OCc5cccc(F)c5)c(Cl)c4)c3s2)C1
1.39

Tell us which inhibition value is on record for CC(C)c1ccc2c(c1)NC(=O)/C2=N/Nc1ccc(S(N)(=O)=O)cc1
-0.36

Specify measured inhibition for Nc1nccc(C#Cc2cncnc2Nc2ccc(OCc3cccc(F)c3)c(Cl)c2)n1 .
-2.31

Name the recorded inhibition of the item NC(=O)c1sc(-n2cnc3ccccc32)cc1OCc1ccccc1Br in your answer.
0.92

###

target: SRSF protein kinase 1 (Homo sapiens) (UniProt Q96SB4); conditions: at 1 µM;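 also: reported values are mean percent inhibition of SRPK1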
Sequence (Q96SB4 whole entry): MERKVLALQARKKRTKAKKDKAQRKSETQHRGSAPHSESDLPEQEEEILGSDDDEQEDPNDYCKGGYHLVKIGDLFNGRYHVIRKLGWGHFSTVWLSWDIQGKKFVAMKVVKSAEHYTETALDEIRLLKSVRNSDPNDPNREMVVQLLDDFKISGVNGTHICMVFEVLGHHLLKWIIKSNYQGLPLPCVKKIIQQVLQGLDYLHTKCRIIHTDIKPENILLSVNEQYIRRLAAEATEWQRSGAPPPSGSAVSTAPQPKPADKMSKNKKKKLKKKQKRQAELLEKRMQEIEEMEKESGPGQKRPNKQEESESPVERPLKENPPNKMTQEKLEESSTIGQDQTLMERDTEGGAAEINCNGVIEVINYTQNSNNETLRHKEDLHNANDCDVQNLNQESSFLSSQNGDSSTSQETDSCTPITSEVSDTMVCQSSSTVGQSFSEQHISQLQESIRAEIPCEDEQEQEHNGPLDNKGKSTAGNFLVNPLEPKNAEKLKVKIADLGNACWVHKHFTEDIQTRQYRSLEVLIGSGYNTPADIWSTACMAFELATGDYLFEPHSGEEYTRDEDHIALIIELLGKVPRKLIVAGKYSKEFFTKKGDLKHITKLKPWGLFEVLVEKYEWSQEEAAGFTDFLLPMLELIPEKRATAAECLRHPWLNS
Result Type: inhibition (%)
Express it in %; write the number only.

Under SRSF protein kinase 1 (Homo sapiens) (UniProt Q96SB4): report inhibition of c1ccc(Nc2ncc(-c3ccccc3)o2)cc1 .
-2.19

Look up and report measured inhibition (SRSF protein kinase 1 (Homo sapiens) (UniProt Q96SB4)) for the following compound: Cc1ccc2c(-c3ccnc(Nc4cccc(C(F)(F)F)c4)n3)c(-c3ccccc3)nn2n1
-2.03

Report value only: inhibition, SRSF protein kinase 1 (Homo sapiens) (UniProt Q96SB4), NS(=O)(=O)c1ccc(Nc2cc(-c3cccc(O)c3)n[nH]2)cc1
-2.8
